GI50 values for the compounds below.
Tested on: T-47D breast
testProtocol: NCI tumour cell line growth inhibition, 48 h
measure: GI50

INSERT INTO measurements (compound, readoutvalue) VALUES
  ('Cn1ncc2c(Nc3ccc(Br)cc3)nc(Nc3ccc(Br)cc3)nc21', '2700 nM'),
  ('Cc1cc(N(CCCl)CCCl)ccc1C=Nc1cccnc1', '1600 nM'),
  ('O=C1OCC(c2ccc(O)c(O)c2)=C1c1cc(O)c(O)c(O)c1', '23200 nM'),
  ('COc1ccc(-c2cc3c4c(nc5ccccc5c4c2)CC(c2cc(OC)c(OC)c(OC)c2)O3)cc1 (stereo unspecified)', '2340 nM'),
  ('COc1ccc(C(CC(=O)c2ccccc2)C(C(=O)c2ccccc2)C(c2ccc(OC)cc2)C2C(=O)NC(=O)NC2=O)cc1 (stereo unspecified)', '21600 nM'),
  ('Cc1ccc(NS(=O)(=O)c2ccc(-c3cnc(C4CC4)o3)cc2)cc1', '2680 nM'),
  ('O=C1C=C(SCCO)C(=O)c2ccccc21', '1470 nM'),
  ('O=C(c1ccccc1)c1ccc(-c2ccc(O)cc2)cc1', '3750 nM'),
  ('c1ccc2c(c1)O[As](O[As]1Oc3ccccc3O1)O2', '1690 nM'),
  ('C[C@]12CC[C@H](O)CC1=CC[C@@H]1[C@@H]2CC[C@]2(C)C(=O)/C(=C/c3cccc(OCCCn4ccnc4)c3)C[C@@H]12', '12400 nM'),
  ('CN(C(=O)C1CCCCC1)c1ccccc1I(=O)=O', '16400 nM');
